Experiment: Solubility in normal saline and phosphate buffered saline (saturated solutions, 25° C., 7 days, HPLC)
Format: physicochemical
Conditions: phosphate buffered saline (PBS), aqueous buffer, thermodynamic from solid; Phosphate Buffered Saline, pH 7.4, 25° C., 7 days
Endpoint Label: solubility at 7 days (µM)
Numbers only; they are read as µM.

Query: solubility at 7 days; subject: CCCCc1nc2c(N)nc3ccccc3c2n1CCCCNC(C)=O [IRM 2, reference compound] 70
